target: Human BCMA (human) (UniProt Q02223); assay: SPR, IgG on chip, huBCMA analyte
Hi there, I'd appreciate the recorded Kd for every entry that follows.
Write it as a number; the unit nM goes unstated.

input: Need Kd, item C01_Rd4_0.6nM_C03 (antibody, V domains shown, IgG) VH: EVQLLESGGGLVQPGGSLRLSCAASGFTFSSYPMSWVRQAPGKGLEWVSAIGGSGGSLPYADSVKGRFTISRDNSKNTLYLQMNSLRAEDTAVYYCARYWPMDSWGQGTLVTVSS VL: EIVLTQSPGTLSLSPGERATLSCRASCDVSSTYLAWYQQKPGQAPRLLIYDASSRAPGIPDRFSGSGSGTDFTLTISRLEPEDFAVYYCQQYMRSPLTFGQGTKVEIK
output: 0.964

input: Now the same for COMBO_Rd4_6nM_C12 (antibody, V domains shown, IgG) VH: EVQLLESGGGLVQPGGSLRLSCAASGFTFSSYPMSWVRQAPGKGLEWVSAALGSGGSTYYADSVKGRFTISRDNSKNTLYLQMNSLRAEDTAVYYCARYWPMDSWGQGTLVTVS VL: EIVLTQSPGTLSLSPGERATLSCRASQSVSASYLAWYQQKPGQAPRLLMYDASIRATGIPDRFSGSGSGTDFTLTISRLEPEDFAVYYCQQYMSWPLTFGQGTKVEIK
output: 0.02

input: Now the same for A02_Rd4_6nM_C25 (antibody, V domains shown, IgG) VH: EVQLLESGGGLVQPGGSLRLSCAASGFTFSSYAMNWVRQAPGKGLEWVSAISDSGGSRWYADSVKGRFTISRDNSKNTLYLQMNSLRAEDTAVYYCARYWPMTPWGQGTLVTVSS VL: EIVLTQSPGTLSLSPGERATLSCRASQSVSSSYLAWYQQKPGQAPRLLMYDASIRATGIPDRFSGSGSGTDFTLTISRLEPEDFAVYYCQQYLDWPLTFGQGTKVEIK
output: 0.065

input: Now the same for COMBO_Rd4_0.6nM_C17 (antibody, V domains shown, IgG) VH: EVQLLESGGGLVQPGGSLRLSCAASGFTFSSYPMSWVRQAPGKGLEWVSAIGGSGGSLPYADSVKGRFTISRDNSKNTLYLQMNSLRAEDTAVYYCARYWPMDIWGQGTLVTVSS VL: EIVLTQSPGTLSLSPGERATLSCRASQGISSTYLAWYQQKPGQAPRLLMYDASIRATGIPDRFSGSGSGTDFTLTISRLEPEDFAVYYCQQYAYWPLTFGQGTKVEIK
output: 0.092

input: Now the same for A02_Rd4_6nM_C26 (antibody, V domains shown, IgG) VH: EVQLLESGGGLVQPGGSLRLSCAASGFTFSSYAMNWVRQAPGKGLEWVSAISDSGGSTYYADSVKGRFTISRDNSKNTLYLQMNSLRAEDTAVYYCARYWPMSLWGQGTLVTVSS VL: EIVLTQSPGTLSLSPGERATLSCRASQSVSSLYLAWYQQKPGQAPRLLMYDASIRATGIPDRFSGSGSGTDFTLTISRLEPEDFAVYYCQQYQVWPLTFGQGTKVEIK
output: 0.033
